What IC50 was measured for each of the following?
system: Kuramochi cell line; assay: Cell Viability Assay (Cell Titer-Glo, 7 days); type: cell-based; conditions: 168 h, Kuramochi cells, 7 days incubation, read-out: PARG Cell viability (IC50)

Asked: For the compound shown here, CC(C)C(=O)N1[C@H](C)CN(c2ncnc3c2c2ccc(S(=O)(=O)NC4(C#N)CC4)cc2n3-c2nnc(C(F)F)s2)C[C@H]1C [Example 31] , give the reported IC50.
Given back: 100 to 1000 nM

Asked: For the compound shown here, C[C@H]1CN(c2ncnc3c2c2ccc(S(=O)(=O)NC4(C#N)CC4)cc2n3-c2nnc(C(F)F)s2)CCO1 [Example 50] , give the reported IC50.
Given back: < 100 nM

Asked: For the compound shown here, C[C@H]1CN(c2ncnc3c2c2ccc(S(=O)(=O)NC4(C#N)CC4)cc2n3-c2nnc(C(F)F)s2)CCN1CC(F)(F)F [Example 159] , give the reported IC50.
Given back: 100 to 1000 nM

###

system: Kuramochi cell line; assay: Cell Viability Assay (Cell Titer-Glo, 7 days); type: cell-based; details: 168 h, Kuramochi cells, 7 days incubation, read-out: PARG Cell viability (IC50)
pIC50: −log10 of the molar value.
PROPERTY: pIC50

Asked: For the compound shown here, N#CC1(NS(=O)(=O)c2ccc3c4c(C5CCN(C(=O)C6COC6)CC5)ncnc4n(-c4nnc(C(F)F)s4)c3c2)CC1 , give the reported pIC50.
Given back: > 7.00

Asked: For the compound shown here, CN1CCC(C(=O)N2CCN(c3ncnc4c3c3ccc(S(=O)(=O)NC5(C#N)CC5)cc3n4-c3nnc(C(F)F)s3)CC2)C1 (stereo not drawn) , give the reported pIC50.
Given back: 6.00 to 7.00

Asked: For the compound shown here, N#CC1(NS(=O)(=O)c2ccc3c4c(N5CCN(C(=O)C6(F)CCC6)CC5)ncnc4n(-c4nnc(C(F)F)s4)c3c2)CC1 , give the reported pIC50.
Given back: 6.00 to 7.00

###

tested on: Kuramochi cell line; test: Cell Viability Assay (Cell Titer-Glo, 7 days); assay type: cell-based; settings: 168 h, Kuramochi cells, 7 days incubation, read-out: PARG Cell viability (IC50)
pIC50: −log10 of the molar value.
What pIC50 was measured for each of the following?

Asked: # value lookup — system Kuramochi cell line, readout pIC50, item N#CC1(NS(=O)(=O)c2ccc3c4c(N5CC6CCC(C5)O6)ncnc4n(-c4nnc(C(F)F)s4)c3c2)CC1 [Example 201]
Given back: > 7.00

Asked: # value lookup — system Kuramochi cell line, readout pIC50, item N#CC1(NS(=O)(=O)c2ccc3c4c(C5CCN(C(=O)[C@H]6CCCN6)CC5)ncnc4n(-c4nnc(C(F)F)s4)c3c2)CC1 [Example 125]
Given back: 6.00 to 7.00

Asked: # value lookup — system Kuramochi cell line, readout pIC50, item CN(C)C(=O)N1CCC(c2ncnc3c2c2ccc(S(=O)(=O)NC4(C#N)CC4)cc2n3-c2nnc(C(F)F)s2)CC1 [Example 88]
Given back: > 7.00

Asked: # value lookup — system Kuramochi cell line, readout pIC50, item C[C@@H](N)C(=O)N1CCC(c2ncnc3c2c2ccc(S(=O)(=O)NC4(C#N)CC4)cc2n3-c2nnc(C(F)F)s2)CC1 [Example 127]
Given back: 6.00 to 7.00

Asked: # value lookup — system Kuramochi cell line, readout pIC50, item N#CC1(NS(=O)(=O)c2ccc3c4c(C5CCN(C(=O)[C@@H]6CCCN6)CC5)ncnc4n(-c4nnc(C(F)F)s4)c3c2)CC1 [Example 124]
Given back: 6.00 to 7.00

Asked: # value lookup — system Kuramochi cell line, readout pIC50, item N#CC1(NS(=O)(=O)c2ccc3c4c(N5CCC6(CC5)COC6)ncnc4n(-c4nnc(C(F)F)s4)c3c2)CC1 [Example 20]
Given back: > 7.00

Asked: # value lookup — system Kuramochi cell line, readout pIC50, item CC(C)C(=O)N1CCC(c2ncnc3c2c2cc(F)c(S(=O)(=O)NC4(C)CC4)cc2n3-c2nnc(C(F)F)s2)CC1 [Example 148]
Given back: > 7.00

Asked: # value lookup — system Kuramochi cell line, readout pIC50, item COC1CCN(c2ncnc3c2c2ccc(S(=O)(=O)NC4(C#N)CC4)cc2n3-c2nnc(C(F)F)s2)CC1 [Example 44]
Given back: > 7.00

Asked: # value lookup — system Kuramochi cell line, readout pIC50, item CC(C)C(=O)N1CCN(c2ncnc3c2c2ccc(S(=O)(=O)NC4(C#N)CC4)cc2n3-c2nnc(C(F)F)s2)C[C@@H]1C [Example 61]
Given back: > 7.00

Asked: # value lookup — system Kuramochi cell line, readout pIC50, item CC(O)CN(C)C(=O)N1CCC(c2ncnc3c2c2ccc(S(=O)(=O)NC4(C#N)CC4)cc2n3-c2nnc(C(F)F)s2)CC1 (centres unmarked) [Example 142]
Given back: > 7.00

Asked: # value lookup — system Kuramochi cell line, readout pIC50, item CON(C)C(=O)N1CCC(c2ncnc3c2c2ccc(S(=O)(=O)NC4(C#N)CC4)cc2n3-c2nnc(C(F)F)s2)CC1 [Example 145]
Given back: > 7.00

Asked: # value lookup — system Kuramochi cell line, readout pIC50, item CN1CCN(C(=O)N2CCC(c3ncnc4c3c3ccc(S(=O)(=O)NC5(C#N)CC5)cc3n4-c3nnc(C(F)F)s3)CC2)CC1 [Example 141]
Given back: 6.00 to 7.00

Asked: # value lookup — system Kuramochi cell line, readout pIC50, item CO[C@H]1CCN(C(=O)N2CCC(c3ncnc4c3c3ccc(S(=O)(=O)NC5(C#N)CC5)cc3n4-c3nnc(C(F)F)s3)CC2)C1 [Example 134]
Given back: > 7.00

Asked: # value lookup — system Kuramochi cell line, readout pIC50, item C[C@@H]1CN(C(=O)N(C)C)[C@@H](C)CN1c1ncnc2c1c1cc(F)c(S(=O)(=O)NC3(C#N)CC3)cc1n2-c1nnc(C(F)F)s1 [Example 45]
Given back: > 7.00

Asked: # value lookup — system Kuramochi cell line, readout pIC50, item N#CC1(NS(=O)(=O)c2ccc3c4c(N5CCN(c6nccs6)CC5)ncnc4n(-c4nnc(C(F)F)s4)c3c2)CC1 [Example 16]
Given back: 6.00 to 7.00

Asked: # value lookup — system Kuramochi cell line, readout pIC50, item CC(C)C(=O)N1C[C@H](C)N(c2ncnc3c2c2ccc(S(=O)(=O)NC4(C#N)CC4)cc2n3-c2nnc(C(F)F)s2)C[C@@H]1C [Example 57]
Given back: 6.00 to 7.00

Asked: # value lookup — system Kuramochi cell line, readout pIC50, item N#CC1(NS(=O)(=O)c2ccc3c4c(C5CCN(C(=O)N6CCOCC6)CC5)ncnc4n(-c4nnc(C(F)F)s4)c3c2)CC1 [Example 140]
Given back: > 7.00

Asked: # value lookup — system Kuramochi cell line, readout pIC50, item CN1CCN(c2ncnc3c2c2ccc(S(=O)(=O)NC4(C#N)CC4)cc2n3-c2nnc(C(F)F)s2)CC1 [Example 56]
Given back: > 7.00

Asked: # value lookup — system Kuramochi cell line, readout pIC50, item CC1(NS(=O)(=O)c2ccc3c4c(C5CCNCC5)ncnc4n(-c4nnc(C(F)F)s4)c3c2)CC1 [Example 93]
Given back: > 7.00

Asked: # value lookup — system Kuramochi cell line, readout pIC50, item N#CC1(NS(=O)(=O)c2ccc3c4c(N5C6CCC5COC6)ncnc4n(-c4nnc(C(F)F)s4)c3c2)CC1 [Example 210]
Given back: > 7.00

Asked: # value lookup — system Kuramochi cell line, readout pIC50, item N#CC1(NS(=O)(=O)c2ccc3c4c(C5=CCC(O)CC5)ncnc4n(-c4nnc(C(F)F)s4)c3c2)CC1 (centres unmarked) [Example 84]
Given back: > 7.00

Asked: # value lookup — system Kuramochi cell line, readout pIC50, item CC(C)C(=O)N1CC=C(c2ccnc3c2c2ccc(S(=O)(=O)NC4(C#N)CC4)cc2n3-c2nnc(C(F)F)s2)CC1 [Example 196]
Given back: 6.00 to 7.00

Asked: # value lookup — system Kuramochi cell line, readout pIC50, item CN(C)C(=O)N1CC=C(c2ncnc3c2c2ccc(S(=O)(=O)NC4(C)CC4)cc2n3-c2nnc(C(F)F)s2)CC1 [Example 152]
Given back: > 7.00

Asked: # value lookup — system Kuramochi cell line, readout pIC50, item N#CC1(NS(=O)(=O)c2ccc3c4c(N5CCN(C(=O)C6CCOCC6)CC5)ncnc4n(-c4nnc(C(F)F)s4)c3c2)CC1 [Example 12]
Given back: > 7.00

Asked: # value lookup — system Kuramochi cell line, readout pIC50, item CC1(NS(=O)(=O)c2ccc3c4c(N5CCN(C(=O)C6CC6)CC5)ncnc4n(-c4nnc(C(F)F)s4)c3c2)CC1 [Example 1]
Given back: 6.00 to 7.00

Asked: # value lookup — system Kuramochi cell line, readout pIC50, item N#CC1(NS(=O)(=O)c2ccc3c4c(N5CCN6CCC[C@H]6C5)ncnc4n(-c4nnc(C(F)F)s4)c3c2)CC1 [Example 160]
Given back: > 7.00
